For each entry below, report its apparent KD of MS2 coat protein value.
system: MS2 coat protein; experiment: apparent KD of MS2 coat protein; designed switch direction (-1 OFF switch, 1 ON switch): -1; higher = weaker reporter binding; settings: Eterna round: R95; input ligand: microRNA oligo, concentration not stated
Numbers only, in nM.

# sequence-entry, target-system, apparent KD of MS2 coat protein (nM)
data = [
    ("ACAAGCUUUUUGCUCGGCUACAUGAGGAUCACCCAUGUUGUGUGUUAUUGUUUUUGAUUGUUCGUGCGCAGCAGGUA [JR_SV3TOV1_Sub073] (puzzle: Sensor v3, turn-off variant 1)", "MS2 coat protein", 29.4),
    ("GAUUAUGCGAGCUUUAGGGACAUGAGGAUCACCCAUGUUCGUCUUAUUAAUCUGGGUGCGCUAACAUACCUAAAUCU [JMF 52] (puzzle: Sensor v3, turn-off variant 1)", "MS2 coat protein", 113),
]

The record that follows has no apparent KD of MS2 coat protein shown yet.
IN: Recall the reported apparent KD of MS2 coat protein of UAGAUGCUCAGGGAGUGUGACAUGAGGAUCACCCAUGUGGUGGUAGGGAACAAGCUUUUUGCACGUACUUAUGAGUA [JR_SV3TOV1_Sub007] (puzzle: Sensor v3, turn-off variant 1) when tested on MS2 coat protein.
OUT: 18.3

====

tested on: MS2 coat protein; assay: apparent KD of MS2 coat protein; designed switch direction (-1 OFF switch, 1 ON switch): -1; higher = weaker reporter binding; settings: input ligand: FMN 200 uM
Class t: apparent KD of MS2 coat protein at least 100 nM. Class f: apparent KD of MS2 coat protein below 100 nM.

Solved cases (4 shown):
# sequence-entry, label-class
measured = [
    ("CCCAUGUUAGGAUAUAUGGAAGGGCGGACGGGCGCCCUAAGGUAGAAGGGACAUGAGGAUCACCCAUGUAAUAA [Diquar] (Eterna round: R97, puzzle: Exclusion 4)", "t"),
    ("CUCGUGUAAGGAUAUAUGAGUCACGGAAAUAAACCGUGAAGAUAGAAGGUACAUGAGGAUCACCCAUGUAAAAC [Mod of Anonveat 4 - Jieux - Exclusion 4] (Eterna round: R97, puzzle: Exclusion 4)", "t"),
    ("UCGAGUGGUUAGGAUAUCAUUGGUGCAUAUCAUUGAGAAGGAACUACAUGAGGAUCACCCAUGUGGCAGUGAUA [Abezaso] (Eterna round: R96, puzzle: Exclusion 6)", "t"),
    ("ACUUAUUGAGGAUAUACAUAGAUUUACAUGAGGAUCACCCAUGUUCCUCUAUGUAUAUAUGUAGAAGGCAGAAGAA [JL-ex5-4.32 Malcolm mod] (Eterna round: R97, puzzle: Exclusion 5)", "f"),
]

Field: next sequence
IN: Answer whether apparent KD of MS2 coat protein of UCUUACUGAGGAUAUACAUAGAUUUACAUGAGGAUCACCCAUGUUCCUCUAAGUAUAUAUGUAGAAGGCAGAAGAA [Mat - Exclusion 5 - JL Mod - D43] (Eterna round: R97, puzzle: Exclusion 5) is greater than or equal to 100 nM.
OUT: t

====

tested on: MS2 coat protein; assay: apparent KD of MS2 coat protein; higher = weaker reporter binding; details: Eterna round: R107; input ligand: tryptophan 2.4 mM
Class yes: apparent KD of MS2 coat protein at least 20 nM. Class no: apparent KD of MS2 coat protein below 20 nM.

# sequence-entry, label-class
rows = [
    ("AUCUCAUAGAGUGAUACCAGACUACAUGAGGAUCACCCAUGUUAGAUUUAAAUAUCAUUUGUCCCUUGGCAGCACAUUAAGUACA [JR_Nu_SSTheophyB_Sub021]", "no"),
    ("AUCAUGGCCAUCGAUACCAGCUACAUGAGGAUCACCCAUGUAAACGGCCCGGUGAGAUGUAGCCCUUGGCAGCGAAGGGUCGAGG [Inenenatti]", "no"),
    ("UGAGAGACCAGAAGGAGCGACAUGAGGAUCACCCAUGUCUCCCGUUAUGGGAGUUCUUUAGGUCAGGUAGGUCGCUGGUCUCUCA [#1 Exclusion - Arginine B Attempt #8 (Inspired by Omei)]", "yes"),
    ("AUGGUUGUCGCGGCCGCCACUGUCGGCCGCCACUAAACAUGAGGAUCACCCAUGUAGGACCGGGACAGGACCGGGUGAUAACCAC [TryBS - #DoubleAptamer 3]", "no"),
    ("CGAGUUCGCUGAUGGGCUACGUCAGGUGAUACCAGCCACUCCCGCGGCCCUUGGCAGCACAUGAGGAUCACCCAUGUAGAGCUUG [Esinve]", "no"),
]

IN: Answer whether apparent KD of MS2 coat protein of ACAUGAGGAUCACCCAUGUAACAACGGGAAGGAGCGCCAAACAAGGCAGGUAGGUCGCCCACAUGAGGAUCACCCAUGUGUUGGG [Exclusion Arginine A GF 27] is greater than or equal to 20 nM.
OUT: yes

IN: Answer whether apparent KD of MS2 coat protein of AAUAACAUGAGGAUCACCCAUGUAAAAGAUACCAGAGUGAUGAUCCUCCCUUGGCAGCUUAAUAACGCUAUUGGAAACAAUAGCG [Mat - Same State Theophlline A - Mod of Eli - D7] is greater than or equal to 20 nM.
OUT: yes

IN: Answer whether apparent KD of MS2 coat protein of GCUUGGGUCGCACGGCCCUGGCGGUGCGAUACCAGCACGGUAACGUGCCCUUGGCAGCGCACAUGAGGAUCACCCAUGUGGUGCG [#1 Exclusion - Theophylline A Attempt #23 (HarryS)] is greater than or equal to 20 nM.
OUT: no

IN: Answer whether apparent KD of MS2 coat protein of UCGCAUUGCUCAGAUACCAGACAUGAGGAUCACCCAUGUACCAAGGUAACCGAAAGGCAUGUCCCUUGGCAGCUGAGCAAUGCGU [MAT - Exclusion Theophlline B - Mod of Eli - D14] is greater than or equal to 20 nM.
OUT: no

IN: Answer whether apparent KD of MS2 coat protein of CCUAUAUAGUCGGCCGCCACUGACUACAUGAGGAUCACCCAUGUAACACGAACAUGGUCCUGGAUCAGGACCGGGACUAUAUAGG [Tryp B Ex t5] is greater than or equal to 20 nM.
OUT: yes

IN: Answer whether apparent KD of MS2 coat protein of ACAUGAGGAUCACCCAUGUAUGACUAUCCUCGAGGACCGGUACGGCCGCCACUCGAACGAGUGGCUCGCGAGUGCGCACUUGCGA [5' end] is greater than or equal to 20 nM.
OUT: no
